Test system: 46 nt NMT1 RNA (GAAA loop), wild-type xanthine riboswitch (RNA, riboswitch) GGAGUAGAAGCGUUCAGCGGCCGAAAGGCCGCCCGGAAAUUGCUCC
Test: ITC
Settings: K+ 50 mM, Mg2+ 10 mM; 50 mM Tris pH 8.0, 25 °C; RNA (1.4 mM stock) titrated into 0.1 mM ligand; N.D.
testReadout: binding

Exam item: I would be grateful if you could share the reported binding for `O=c1[nH]cnc2c1ncn2[C@@H]1O[C@H](CO)[C@@H](O)[C@H]1O` .
Marked response: no

Exam item: Form field: reported binding of `Nc1ncnc2c1ncn2[C@@H]1O[C@H](CO)[C@@H](O)[C@H]1O`
Marked response: no

Exam item: I have this compound here, `Nc1ncnc2[nH]cnc12` , and I need its recorded binding.
Marked response: no

Exam item: Look at this compound and give its reported binding. `O=c1[nH]cnc2nc[nH]c12`
Marked response: no

This collection of values is drawn from paper PMC8266621.
